- Test system: NCI-H522 lung
- protocol details: NCI-60 one-dose screen, 48 h (100 = growth as untreated, 0 = no growth, -100 = all killed)
- setup conditions: 10 µM unless noted
The panel holds about 83,000 compounds, 20% with a hit somewhere; the sample as a whole holds those more often.
experimental readout: growth (%)

{"columns": ["molecule", "value measured"],
 "data": [
  ["CCCCOc1ccc(/C(C)=N/Nc2cc(C)nc3ccc(Br)cc23)cc1", 96.9],
  ["CNC(=O)c1cccc(Cn2nc(C)c(NC(=O)c3ccc(COc4ccc(C(F)(F)F)cc4C)cc3)c2C)c1", 33],
  ["O=[N+]([O-])c1ccc(NC(=S)N/N=C/c2cc3ccccc3n3nnnc23)cc1", 35.4],
  ["Fc1ccc2c(-c3cncn3CCc3ccccc3)c[nH]c2c1", 82],
  ["CCOC(=O)Oc1c(OC)cc(C(=O)c2ccc(OC)c(O)c2OC)cc1OC", 24],
  ["C[C@H]1[C@H](C)CC[C@]2(C(=O)Nc3ccc4ncccc4c3)CC[C@]3(C)C(=CC[C@@H]4[C@@]5(C)CCCNC(C)(C)[C@@H]5CC[C@]43C)[C@H]12", 9.94],
  ["Nc1ccccc1NC(=O)c1ccc(-n2nc(-c3ccccc3)c3ccccc32)cc1", 25],
  ["COc1cc(CC(=O)n2ncc3ccc(N)cc32)cc(OC)c1OC", 85.6],
  ["N#CC1=C(N)Oc2c(ccc3ccccc23)C1c1ccccc1Cl (stereo not drawn)", -7.02],
  ["CCOC(=O)C1=C(CCl)NC(=O)NC1c1ccc2c(c1)OCO2 (stereo not drawn)", -42.3],
  ["N=C1C(c2nc3ccccc3s2)=C(O)CN1c1cc(Cl)cc(Cl)c1", 86.5],
  ["CCN(CC)c1ccc(C(=O)c2ccccc2)cc1", 87.2],
  ["Cc1c(C)c([N+](=O)[O-])c(C)c([N+](=O)[O-])c1C", 77.2],
  ["CCOC(=O)Oc1c(OC)cc(C(=O)c2ccc(OC)c(OC(=O)CCl)c2OC)cc1OC", 8.85],
  ["C=C1C(=O)O[C@H]2[C@H]1CC/C(CNC(=O)/C=C/c1cccc(OC)c1)=C\\CC[C@@]1(C)O[C@@H]21", -69.4],
  ["O=S(=O)(Nc1ccc(-n2cnc3cc(-c4ccc(O)cc4)ccc32)cc1)c1ccccc1", 50.8],
  ["COc1ccc2c(c1)oc1c(C)c3c(c(C)c12)C(=O)N(N)C3=O", 49.5],
  ["CN1[C@@H]2CC[C@H]1/C(=C\\c1ccccc1)C(=O)/C2=C/c1ccccc1", 48.2],
  ["CN1CCN(CCNc2nccc(-c3c(-c4cccc(O)c4)nc4sccn34)n2)S1(=O)=O", 46.2],
  ["c1ccc(-c2c(-c3ccccc3)[n+](Cc3ccc4ccccc4c3)c(-c3cccc4ccccc34)n2Cc2ccc3ccccc3c2)cc1", -39.5],
  ["C=C1C(=O)O[C@H]2[C@H]1CC/C(COC(=O)NCC(C)c1ccc(CC(C)C)cc1)=C\\CC[C@@]1(C)O[C@@H]21 (stereo partly drawn)", -64.1],
  ["Cc1cc2cc3ccc(N(C)C)cc3nc2cc1N", -49.9],
  ["CCCCCN1C=C/C(=C\\C(=O)N2CCCc3ccccc32)c2ccccc21", 68.5],
  ["N#C/C(=C\\c1ccc([N+](=O)[O-])s1)c1nc2cc(Br)ccc2s1", -45.4],
  ["CC1(C)CC[C@]2(C(=O)O)CC[C@]3(C)C(=CC[C@@H]4[C@@]5(C)Cc6c([nH]c7ccccc67)C(C)(C)[C@@H]5CC[C@]43C)[C@@H]2C1", 31.5],
  ["CCNC(=O)Oc1ccc(/C(=C(\\C)c2ccccc2)c2ccc(OCCN3CCCCC3)cc2)cc1", 93.4],
  ["N#C/C(=C\\c1c(-c2ccccc2)[nH]c2ccccc12)C(=O)c1ccc(Cl)cc1", 35.3],
  ["COC(=O)/C=C1\\S/C(=N\\NC(=O)c2cc3ccc2/C=C\\c2ccc(cc2)/C=C\\3)N(Cc2ccccc2)C1=O", 15.9],
  ["CC1(C)NCCC[C@]2(C)[C@H]3CC[C@@H]4[C@H]5[C@H](C(=O)/C=C/c6ccco6)CC[C@]5(CO)CC[C@@]4(C)[C@]3(C)CC[C@@H]12", 88.3],
  ["Cn1nc(CC#N)c2c(=N)n(N)cnc21", 110],
  ["CCCCCC(=O)Oc1ccc(/C(=C(\\C)c2ccccc2)c2ccc(OCCN3CCCCC3)cc2)cc1", 70.1],
  ["O=C(Cn1c[n+](CC(=O)c2ccc(-c3ccccc3)cc2)c2ccccc21)Nc1cccc2cccnc12", 2.6],
  ["O=S(=O)(NCCNc1nccc(-c2c(-c3cccc(F)c3)nc3sccn23)n1)c1ccc(Br)cc1", 62.6],
  ["N#C/C(=C\\c1ccc([N+](=O)[O-])s1)c1nc2cc(Cl)ccc2s1", -35.9],
  ["C=C1C(=O)O[C@H]2[C@H]1CC/C(CNC(=O)CCc1ccc(OC)cc1)=C\\CC[C@@]1(C)O[C@@H]21", 20.2],
  ["COc1ccc(C(=O)CC#N)cc1", 113],
  ["CC1=C(C(=O)/C=C/c2c[nH]c3ccccc23)C(c2ccccc2)NC(=S)N1 (stereo not drawn)", 89],
  ["Cc1cnc(C(=O)Nc2nc3ccc(S(=O)(=O)Nc4ccc(C(C)(C)C)cc4)cc3[nH]2)cn1", 24.4]
]}

----------
- Tested on: SF-295 CNS
- protocol details: NCI-60 one-dose screen, 48 h (100 = growth as untreated, 0 = no growth, -100 = all killed)
- setup conditions: 10 µM unless noted
- Experimental: Cells are grown in 96 well plates and exposed to the test compound for 48 hours. Compounds are tested at a single concentration, which is 10^-5 M for most compounds. The reported endpoint is percent growth (GI% or GIPRCNT), where numbers from 0 - 100% represent growth inhibition, and numbers from -100% - 0 represent cell death. For example, a value of 40 represents 60% growth inhibition. A value of 0 means no net growth occurred over the course of the experiment. […]
This is part of a sample that, as a whole, favours compounds with a hit. Of some 83,000 tested, about 20% had one in any assay.

{"columns": ["compound", "growth, %"],
 "data": [
  ["c1ccc(-c2c(-c3ccccc3)[n+](Cc3ccc4ccccc4c3)c(-c3cccc4ccccc34)n2Cc2ccc3ccccc3c2)cc1", -86],
  ["COc1ccccc1/C=C1\\Oc2cc(OCCN3CCCC3)ccc2C1=O", 95.4],
  ["CN1C(=O)NC(c2ccc3c(c2)OCO3)C=C1c1ccccc1 (stereo not given)", 98.6],
  ["O=C1NN(C(=O)c2ccccc2)C(c2ccc(Cl)c(Cl)c2)=C/C1=C\\c1ccc([N+](=O)[O-])cc1", 88.5],
  ["COc1cccc(-c2nc3occn3c2-c2ccnc(NCCNS(=O)(=O)c3ccc(C(F)(F)F)cc3)n2)c1", 99.1]
]}

----------
- Tested on: MALME-3M melanoma
- protocol details: NCI-60 one-dose screen, 48 h (100 = growth as untreated, 0 = no growth, -100 = all killed)
- setup conditions: 10 µM unless noted
About 83,000 compounds went through this panel and 20% of them were active in at least one assay; those are over-represented in the sample as a whole.
Measured growth values are reported for all entries that follow.

{"columns": ["smiles data", "assay target", "growth (%)"],
 "data": [
  ["COc1cc(/C(C)=C(\\c2ccc(Cl)cc2)c2ccc(OCCN3CCCC3)cc2)ccc1F", "MALME-3M melanoma", -2.59],
  ["C=C1C(=O)O[C@H]2[C@H]1CC/C(CNC(=O)/C=C/c1ccccc1)=C\\CC[C@@]1(C)O[C@@H]21", "MALME-3M melanoma", -50.1],
  ["CSc1nc2sc3cccc(Cl)c3n2c(=N)c1C#N", "MALME-3M melanoma", 95.3],
  ["COc1ccc(/C=C/c2nc(Nc3cccc(NC(C)=O)c3)c3ccccc3n2)cc1", "MALME-3M melanoma", 102],
  ["N#Cc1cccc(-c2ccc3c(c2)NC(=O)/C3=C\\c2ccc[nH]2)c1", "MALME-3M melanoma", 51.6]
]}

----------
- Test system: OVCAR-3 ovarian
- protocol details: NCI-60 one-dose screen, 48 h
- setup conditions: 10 µM unless noted
Compounds without any hit were thinned out: in the full panel of roughly 83,000, 20% have a hit. Activity calls are given as the source filed them. The calls were made as follows: active = growth percent below 10; inactive = the rest.
Labels: 1.0 for active, 0.0 for inactive

{"columns": ["molecule", "class assignment"],
 "data": [
  ["CCN(CC)c1ccc(/C=N/NC(=O)CSc2nc3ccccc3c(=O)n2CCc2ccc(S(N)(=O)=O)cc2)c(O)c1", 1.0],
  ["COc1cc(/C(C)=C(\\c2ccc(Cl)cc2)c2ccc(OCCN3CCCC3)cc2)ccc1F", 0.0],
  ["N=C(N)c1ccc(OCCCCCCCCCCOc2ccc(C(=N)N)cc2)cc1", 1.0],
  ["O=C(/C=C(/C=C/c1csc2ccccc12)OB(F)F)/C=C/c1csc2ccccc12", 1.0],
  ["NC(=NCc1ccccc1)C(N=Nc1ccccc1)C(=O)NCc1ccccc1 (centres undefined)", 0.0],
  ["Nc1ccccc1NC(=O)c1ccc(-n2nc(-c3ccccc3)c3ccccc32)cc1", 0.0],
  ["CN1CCC(=C(c2ccccc2)c2ccccc2)C(c2ccccc2)C1 (centres undefined)", 0.0],
  ["C=C(C)[C@@H]1CC[C@]2(C(=O)N3CCN(C)CC3)CC[C@]3(C)[C@H](CC[C@@H]4[C@@]5(C)C/C(=C/c6ccncc6)C(=O)C(C)(C)[C@@H]5CC[C@]43C)[C@@H]12", 0.0],
  ["c1ccc2c(-c3nccs3)c[nH]c2c1", 0.0],
  ["C#Cc1cccc(NC(=O)c2cccc(NC(=O)CCl)c2)c1", 1.0],
  ["C[C@@H](Nc1ncnc2ccc(-c3cnc(N)nc3)cc12)c1ccc(F)cc1", 0.0],
  ["COc1ccc(-c2nc3sccn3c2/C=C/C(=O)c2ccc3c(c2)OCO3)cc1", 0.0],
  ["C=C1C(=O)O[C@H]2[C@H]1CC/C(CNS(=O)(=O)c1cccc3ccccc13)=C\\CC[C@@]1(C)O[C@@H]21", 0.0],
  ["COC(=O)N[C@H]1CCc2c(Cl)c(OC)c(OC)c(OC)c2-c2ccc(SC)c(=O)cc21", 1.0],
  ["COc1cc(C2=C(c3cn(C)c4ccccc34)COC2=O)cc(OC)c1OC", 1.0],
  ["COc1ccc(CC(C)=C(c2ccc(OCCN3CCCCCC3)cc2)c2ccc(OCCN3CCCCCC3)cc2)cc1", 1.0],
  ["Cc1cc2c(c(C)c1Cl)C(=O)/C(=C/c1ccc(O)c(O)c1)O2", 0.0],
  ["CCCCCN1C=C/C(=C\\C(=O)N(C)c2ccc(OC(F)(F)F)cc2)c2ccccc21", 0.0],
  ["COc1ccc(NC(N)=NCCCOc2ccc(F)cc2)cc1", 0.0]
]}

Taken from PubChem BioAssay (NCI).
